The measured values listed here are drawn from the supplement of paper PMC11451515.

system: SEM cells; assay: AUC of viability dose-response curve (% viability x log10 dose units); higher = less sensitive; settings: RPMI 5 mM glucose + 10% FBS; 48 h
Measured property: AUC of viability dose-response curve
// print number alone

Illustrative cases are given below, each with its answer.
C/C=C(/C)C(=O)O[C@H]1C(C)=C2[C@H]([C@@H]1OC(=O)CCCCCCC)[C@@](C)(OC(C)=O)C[C@H](OC(=O)CCC)[C@@]1(O)[C@H]2OC(=O)[C@@]1(C)O; 183
Cc1ccccc1N1C(=O)c2cc([S+](N)(=O)[O-])c(Cl)cc2NC1C (stereo not drawn); 413
C[C@](O)(COc1ccc(C#N)cc1)C(=O)Nc1ccc(C#N)c(C(F)(F)F)c1; 396

What does the record list as AUC of viability dose-response curve for CN(C)CCOc1cc(-c2cn[nH]c2)ccc1NC(=O)C1COc2ccccc2O1 (stereo not drawn) ?
453

// next record NC1(c2ccc(-c3nc4ccn5c(=O)[nH]nc5c4cc3-c3ccccc3)cc2)CCC1
318

// next record O=C(Nc1ccccc1Br)N[C@@H]1CCN(c2ccc(C(F)(F)F)cn2)C1
461

// next record C=CC(=O)Nc1cccc(Oc2nc(Nc3ccc(N4CCN(C)CC4)cc3)ncc2Cl)c1
303

// next record FC(F)(F)c1ccc(/C=C/c2nc(COc3ccc(CCCCn4ccnn4)cc3)co2)cc1
411
